Each recorded value in this set is attributed to patent US8604206B2.

# measurement-target: GCase (Homo sapiens (Human))
# Sequence (P04062 40-536): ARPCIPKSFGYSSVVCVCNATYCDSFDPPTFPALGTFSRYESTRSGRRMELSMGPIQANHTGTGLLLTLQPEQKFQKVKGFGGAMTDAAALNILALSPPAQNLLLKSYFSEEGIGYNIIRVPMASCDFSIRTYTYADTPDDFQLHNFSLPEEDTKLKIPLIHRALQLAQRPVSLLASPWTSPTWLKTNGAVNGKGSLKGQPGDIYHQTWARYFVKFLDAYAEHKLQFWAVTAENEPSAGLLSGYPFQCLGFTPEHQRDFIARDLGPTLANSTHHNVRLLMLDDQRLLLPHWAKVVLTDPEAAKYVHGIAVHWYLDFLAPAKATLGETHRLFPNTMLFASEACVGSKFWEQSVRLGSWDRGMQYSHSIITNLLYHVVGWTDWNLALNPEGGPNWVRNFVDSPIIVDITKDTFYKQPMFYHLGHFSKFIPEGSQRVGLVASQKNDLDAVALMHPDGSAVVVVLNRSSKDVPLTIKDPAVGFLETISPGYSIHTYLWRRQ
# experiment-summary: GCase activity enhancement (EC50, Emax) of Table 2B
endpoint-name: pEC50
Note on units: pEC50 is unitless, being -log10 of a concentration expressed in mol/L.

Solved cases (6 shown):
[[record]]
molecule = "CC(O)[C@H]1CNC[C@@H](O)[C@@H]1O (single isomer, unassigned)"
numeric_readout = 6.31

[[record]]
molecule = "C[C@H](O)[C@H]1CNC[C@@H](O)[C@@H]1O (single isomer, unassigned)"
numeric_readout = 5.97

[[record]]
molecule = "CC[C@@H](F)[C@H]1CNC[C@@H](O)[C@@H]1O.Cl [hydrochloride]"
numeric_readout = 7.07

[[record]]
molecule = "O[C@@H]1[C@@H]([C@H](O)c2ccccc2)CNC[C@H]1O"
numeric_readout = 5.30

[[record]]
molecule = "O[C@@H]1[C@@H](Cc2ccccc2)CNC[C@H]1O"
numeric_readout = 6.74

[[record]]
molecule = "CC(C)(O)[C@H]1CNC[C@@H](O)[C@@H]1O"
numeric_readout = 6.10


Please find the next molecule below.
stdin: Requested field: pEC50. Item: C[C@@H](F)[C@@H]1CNC[C@@H](O)[C@@H]1O.Cl [Cmpd 14, Hydrochloride]
stdout: 7.59

====

# experiment-summary: Rat pharmacokinetics
# Format: in vivo
# settings: male, Sprague-Dawley, plasma, IV, 3 mg/kg free base
Below, each of the molecules is paired with its reported clearance value.
Kindly provide the numeric value in mL/min/kg only, without the unit symbol.

[[record]]
smiles_input = "O[C@@H]1[C@@H](Cc2ccccc2)CNC[C@H]1O"
numeric_readout = 85.8


// below: clearance requested for another molecule
stdin: Quick one: clearance of `Cl.O[C@H]1[C@H](O)CNC[C@@H]1C(F)F` ?
stdout: 25.9

====

# measurement-target: recombinant human GCase (rhGCase; Cerezyme®) (Homo sapiens (Human), UniProt P04062, R534H)
# Sequence (P04062 40-536 R534H limits assumed): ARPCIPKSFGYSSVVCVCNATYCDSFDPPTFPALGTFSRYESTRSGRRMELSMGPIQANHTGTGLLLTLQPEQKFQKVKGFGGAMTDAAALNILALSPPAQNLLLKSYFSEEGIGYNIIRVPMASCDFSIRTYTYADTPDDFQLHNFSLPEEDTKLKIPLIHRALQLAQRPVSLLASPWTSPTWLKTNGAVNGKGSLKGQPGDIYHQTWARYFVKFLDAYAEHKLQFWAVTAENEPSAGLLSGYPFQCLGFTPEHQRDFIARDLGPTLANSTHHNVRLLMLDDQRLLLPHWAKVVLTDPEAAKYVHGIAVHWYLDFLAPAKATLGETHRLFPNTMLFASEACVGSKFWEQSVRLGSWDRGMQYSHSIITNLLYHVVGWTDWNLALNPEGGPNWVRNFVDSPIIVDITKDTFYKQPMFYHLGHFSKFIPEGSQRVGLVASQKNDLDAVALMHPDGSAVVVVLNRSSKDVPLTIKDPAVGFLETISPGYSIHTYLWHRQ
# experiment-summary: In vitro enzyme inhibition assay (4-MU-β-D-Glc substrate), inhibition constants
# Type: biochemical
# settings: pH 7.0; read-out: IC50 (μM) pH 7.0
endpoint-name: IC50
// return the numeric value with its unit appended

[[record]]
molecule = "CC(C)(O)[C@H]1CNC[C@@H](O)[C@@H]1O"
endpoint_name = "IC50"
result = "0.029 µM"

[[record]]
molecule = "CC[C@@H](F)[C@H]1CNC[C@@H](O)[C@@H]1O.Cl [hydrochloride]"
endpoint_name = "IC50"
result = "0.06 µM"


stdin: What value of IC50 on recombinant human GCase (rhGCase; Cerezyme®) (Homo sapiens (Human), UniProt P04062, R534H) does CC(O)[C@H]1CNC[C@@H](O)[C@@H]1O (single isomer, unassigned) have?
stdout: 0.02 µM

====

# measurement-target: recombinant human GCase (rhGCase; Cerezyme®) (Homo sapiens (Human), UniProt P04062, R534H)
# experiment-summary: In vitro enzyme inhibition assay (4-MU-β-D-Glc substrate), inhibition constants
# Format: biochemical
# settings: pH 7.0; Cheng-Prusoff from IC50; read-out: Ki (μM) pH 7.0
# maps each entry to its log10 of Ki
Please keep in mind that the values are log10 of Ki expressed in µM.

[[record]]
compound = "CC[C@@H](F)[C@H]1CNC[C@@H](O)[C@@H]1O.Cl [hydrochloride]"
endpoint_name = "log10 of Ki"
numeric_readout = -1.51


Let us examine a further case.
stdin: Look at this compound and give its reported log10 of Ki. `CC(C)(O)[C@H]1CNC[C@@H](O)[C@@H]1O`
stdout: -1.82
